System: STK39
Settings: concentration: 1 μM,replicates: in singlicate; n = 1;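 note: KINOMEscan kinase panel screen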
property: %Inh (%)

{"columns": ["compound", "observed-measurement"],
 "data": [
  ["CCn1c(-c2nonc2N)nc2cncc(Br)c21 [SB-738004]", 21],
  ["O=C(Nc1cccc(C(F)(F)F)c1)c1cccc(Oc2ccc3nccn3n2)c1", 2],
  ["OCCn1cc(-c2cnc3nnn(Cc4ccc5ncccc5c4)c3n2)cn1", 0],
  ["Cn1ccc2ncnc(Oc3ccc(NC(=O)Nc4cc(C(C)(C)C)on4)c(Cl)c3)c21", 23],
  ["COc1cccc(CNC(=O)NC2CCN(c3ccnc(Nc4cc(OC)c(OC)c(OC)c4)n3)C2)c1 (stereo not shown) [GSK1379765]", 10],
  ["Cc1ccc(CC(=O)N2CCc3cc(-c4cn(C)c5ncnc(N)c45)ccc32)cc1 [GSK2634758]", 1],
  ["CCOC(=O)N1CCC(n2cnc(-c3ccc(F)cc3)c2-c2ccnc(N)n2)CC1 [SB-219952]", 46],
  ["O=C(Nc1ccc(Oc2ccc3nc(NC(=O)C4CC4)cn3n2)c(F)c1)c1cccn(-c2ccccc2)c1=O", 0],
  ["N#Cc1cccc(C(=O)NC2CCN(c3ccnc(Nc4ccc(F)cc4)n3)C2)c1 (stereo not shown) [GSK1379708]", 0],
  ["CC(C)c1nc(-c2cccc(NS(=O)(=O)c3ccccc3)c2)c(-c2ccnc(Nc3ccc4c(c3)CN(C)CC4)n2)s1 [GSK1649598]", 85],
  ["Cc1n[nH]c2cc(Nc3ccnc(Nc4cccc(CN5CCOCC5)c4)n3)ccc12 [GW682569]", 16],
  ["Cc1cccc2c(-c3ccncc3)c(-c3ccc(F)cc3)nn12.Cl [GW461487]", 12],
  ["CN1CCN(CCNc2nc3cc(Oc4ccc(NC(=O)Nc5cc(C(F)(F)F)ccc5F)cc4)ccc3[nH]2)CC1.Cl.Cl [GW768504]", 0],
  ["Cl.c1ccc(Oc2ccc(Nc3ccnc4cc(-c5ccc(CN6CCNCC6)o5)ccc34)cc2)nc1 [GW567142]", 1],
  ["CCCC(=O)Nc1n[nH]c2ncccc12 [SB-601436]", 0],
  ["Cc1ccn2nc(-c3ccc(F)cc3)c(-c3ccncc3)c2c1.Cl [GW457859]", 4],
  ["CN1CCN(CCCNc2nccc(-c3c(-c4ccc(F)cc4)nn4cc(C(N)=O)ccc34)n2)CC1 [GW622475]", 23],
  ["CC(C)S(=O)(=O)N1CCN(Cc2ccc3c(c2)nc(NC(=O)c2ccsc2)n3C[C@H](O)c2ccccc2)CC1 [GW635815]", 10],
  ["Cn1ccc2ncnc(Oc3ccc(NC(=O)Nc4cccc(C(F)(F)F)c4)c(Cl)c3)c21", 0]
]}

###

System: JNK2
Construct: gene MAPK9
Conditions: concentration: 1 μM,replicates: in singlicate; n = 1
%Inh of 30% or higher: fulfilled. Under 30%: not fulfilled.

{"columns": ["compound", "assigned-category"],
 "data": [
  ["CCOC(=O)N1CCC(n2cnc(-c3ccc(F)cc3)c2-c2ccnc(N)n2)CC1", "fulfilled"],
  ["CC(C)c1nc(-c2cccc(NS(=O)(=O)c3ccccc3)c2)c(-c2ccnc(Nc3ccc4c(c3)CN(C)CC4)n2)s1", "fulfilled"],
  ["CCn1c(-c2nonc2N)nc2cncc(CNC3CCNCC3)c21.Cl", "not fulfilled"],
  ["COc1cccc(CNC(=O)NC2CCN(c3ccnc(Nc4cc(OC)c(OC)c(OC)c4)n3)C2)c1 (centres unmarked)", "not fulfilled"],
  ["Cc1ccc(Nc2ccnc(Nc3ccc4c(c3)CS(=O)(=O)C4)n2)cc1O.Cl", "fulfilled"],
  ["O=C(Nc1cccc(C(F)(F)F)c1)c1cccc(Oc2ccc3nccn3n2)c1", "not fulfilled"],
  ["Cn1ccc2ncnc(Oc3ccc(NC(=O)Nc4cnn(C(C)(C)C)c4)c(Cl)c3)c21", "not fulfilled"],
  ["O=C(Nc1n[nH]c2cc(-c3ccco3)ccc12)C1CC1", "not fulfilled"],
  ["CN(c1ccc2c(c1)nc(NCc1ccc(F)cc1)n2C)c1ccnc(Nc2ccc(CS(C)(=O)=O)cc2)n1.Cl", "fulfilled"],
  ["CNC(=O)c1ccccc1Nc1nc(Nc2cccc(CS(C)(=O)=O)c2)ncc1C.O=CO", "fulfilled"],
  ["Cn1ccc2ncnc(Oc3ccc(NC(=O)Nc4cncc(C(F)(F)F)c4)c(Cl)c3)c21", "not fulfilled"],
  ["C[C@@H]1CNc2c(sc3ccc4nc(-c5ccncc5)ccc4c23)C(=O)N1", "not fulfilled"],
  ["Cc1ccc(C(=O)Nc2ccc(Oc3ccc4nc(NC(=O)C5CC5)cn4c3)c(F)c2)c(=O)n1-c1ccccc1", "not fulfilled"],
  ["Cn1ccc2ncnc(Oc3ccc(NC(=O)Nc4cccc(C(F)(F)F)c4)c(F)c3)c21", "not fulfilled"],
  ["O=C(Nc1ccccc1)c1cccc(Oc2ccc3nccn3n2)c1", "not fulfilled"],
  ["CN(c1cccc(CNc2nc(Nc3ccc4c(c3)CC(=O)N4)ncc2C(F)(F)F)c1)S(C)(=O)=O", "fulfilled"]
]}
